Property: Euclidean distance; scope: individual molecules
- System: FB
- measurement description: Euclidean distance of Cell Painting phenotypic profile (signed KS, 77 features) to DMSO centroid (dimensionless distance); 5 or 10 uM (library dependent); higher = stronger phenotypic change vs DMSO (phenoactivity)
- assay setup: 48 h
Just the number, please, no unit after it.

Record request: Euclidean distance value, item CN1C(=O)C(C)(C)Oc2c(-c3cn(C)c(=O)c4[nH]ccc34)cc(S(C)(=O)=O)cc21 3.94

Thanks! And C[C@@H](O)[C@H]1C(=O)N2C(C(=O)O)=C(S[C@@H]3CN[C@H](CNS(N)(=O)=O)C3)[C@H](C)[C@H]12 ? 1.15

Thanks! And COC(=O)Nc1nc2cc(C(=O)c3ccccc3)ccc2[nH]1 ? 2.58

Thanks! And COCCNCc1ccc(-c2cc3nccc(Oc4ccc(NC(=O)C5(C(=O)Nc6ccc(F)cc6)CC5)cc4F)c3s2)nc1 ? 5.24

---
Record request: Euclidean distance value, item CN1CCN(C(c2ccccc2)c2ccccc2)CC1 [Cyclizine 2HCl] 1.58

Thanks! And Oc1ccc(/C=C/c2cc(O)cc(O)c2)cc1 ? 1.74

Thanks! And O=C1C(CC[S+]([O-])c2ccccc2)C(=O)N(c2ccccc2)N1c1ccccc1 (racemic) [(+/-)-Sulfinpyrazone] ? 1.22

Thanks! And NC(=O)c1ccc(I)c([N+](=O)[O-])c1 ? 1.31

Thanks! And N[C@H](Cc1ccccc1)C(=O)O ? 0.864

Thanks! And COc1cc(NS(=O)(=O)c2ccc(N)cc2)nc(OC)n1 [SulfadiMethoxine sodium] ? 1.03

Thanks! And O=C(Nc1ccc(-c2ccnc(Nc3ccc(N4CCOCC4)cc3)n2)cc1)C1CCCN1 (configuration not stated) ? 1.52

Thanks! And COc1ccc(-c2cc(=O)c3c(OC)c(OC)c(OC)c(OC)c3o2)cc1 ? 0.742

Thanks! And Cc1ccc(-n2nc(C(C)(C)C)cc2NC(=O)Nc2ccc(OCCN3CCOCC3)c3ccccc23)cc1 ? 1.38

Thanks! And CO[C@@]1(NC(=O)Cc2cccs2)C(=O)N2C(C(=O)O)=C(COC(N)=O)CS[C@@H]21 [Cefoxitin sodium] ? 1.02

---

- System: FB
- measurement description: Euclidean distance of Cell Painting phenotypic profile (signed KS, 77 features) to DMSO centroid (dimensionless distance); 5 or 10 uM (library dependent); higher = stronger phenotypic change vs DMSO (phenoactivity)
- assay setup: 48 h
Property: Euclidean distance; scope: individual compounds

Here is how some compounds turned out for Euclidean distance.
Lab note: need Euclidean distance with FB for entry COc1cc2ncnc(Nc3cccc(Cl)c3)c2cc1OC [AG-1478 (Tyrphostin AG-1478)] , please look it up. 1.21

Thanks! And O=C(NC[C@H]1CN(c2ccc(N3CCOCC3=O)cc2)C(=O)O1)c1ccc(Cl)s1 [Rivaroxaban] ? 0.949

Thanks! And CC(=O)OCC(=O)[C@@]1(O)[C@H](C)C[C@H]2[C@@H]3CCC4=CC(=O)C=C[C@]4(C)[C@@]3(F)[C@@H](O)C[C@@]21C [Dexamethasone Acetate] ? 1.85

Thanks! And CNCc1ccc(-c2[nH]c3cc(F)cc4c3c2CCNC4=O)cc1 ? 1.66

Thanks! And O=C(Nc1cccc(Nc2ncc(Br)c(NCCc3cnc[nH]3)n2)c1)N1CCCC1 ? 3.05

Thanks! And Cc1[nH]nc2ccc(-c3cncc(OC[C@@H](N)Cc4ccccc4)c3)cc12 ? 5.02

---
Lab note: need Euclidean distance with FB for entry OCc1ccccc1O[C@@H]1O[C@H](CO)[C@@H](O)[C@H](O)[C@H]1O [Salicin] , please look it up. 0.638

Thanks! And OCc1ccc(Cl)cc1Cl [2.4-dichlorobenzyl alcohol] ? 0.663

---

- Test system: HEPG2
- measurement description: Euclidean distance of Cell Painting phenotypic profile (signed KS, 77 features) to DMSO centroid (dimensionless distance); 5 or 10 uM (library dependent); higher = stronger phenotypic change vs DMSO (phenoactivity)
- assay setup: 48 h
experimental readout: Euclidean distance
Just the number, please, no unit after it.

Here is how some compounds turned out for Euclidean distance.
Record request: Euclidean distance value, item c1cc(CN2CCCNCCNCCCNCC2)ccc1CN1CCCNCCNCCCNCC1 [Plerixafor (AMD3100)] 0.976

Thanks! And CC(C)(C)c1cc(/C=C(\C#N)C(N)=S)cc(C(C)(C)C)c1O [Tyrphostin AG 879] ? 0.81

Thanks! And Cc1cc(=O)n(-c2ccccc2)n1C [Antipyrine] ? 0.888

Thanks! And Cc1cc(C)c(CNC(=O)c2cc(-c3ccc(CN4CCOCC4)cc3)cc3c2cnn3C2CCCC2)c(=O)[nH]1 ? 1.44

Thanks! And C=C1/C(=C\C=C2/CCC[C@]3(C)[C@@H]([C@H](C)CCCC(C)(C)O)CC[C@@H]23)C[C@@H](O)C[C@@H]1O [Calcitriol] ? 0.859

Below: the item to evaluate.
Record request: Euclidean distance value, item COc1cccc2cc(-c3nc([C@H]4CC[C@H](C(=O)O)CC4)n4ncnc(N)c34)[nH]c12 2.92

---

Property: Euclidean distance; scope: individual compounds
- System: FB
- measurement description: Euclidean distance of Cell Painting phenotypic profile (signed KS, 77 features) to DMSO centroid (dimensionless distance); 5 or 10 uM (library dependent); higher = stronger phenotypic change vs DMSO (phenoactivity)
- assay setup: 48 h
Just the number, please, no unit after it.

Record request: Euclidean distance value, item N[C@H]1C[C@@H]1c1ccc(-c2cccc(O)c2)cc1 1.18

Thanks! And CCC(=O)N1CC[C@H](Nc2ncnc3c2CN(c2cnc(OC)c(C(F)(F)F)c2)CC3)C1 [leniolisib(CDZ 173)] ? 1.76

Thanks! And O=C(Nc1ccccc1Br)N[C@@H]1CCN(c2ccc(C(F)(F)F)cn2)C1 ? 0.9

Thanks! And Cc1ccc(-c2c(-c3nn(C)c4ncnc(N5CC[C@H](N6CCCCC6)C5)c34)cnn2C)cc1 ? 1.22

Below: the item to evaluate.
Record request: Euclidean distance value, item O=C(Nc1cc(C(F)(F)F)ccc1N1CCCCC1)c1ccncc1 0.794

---

Property: Euclidean distance; scope: individual compounds
- Test system: DU145
- measurement description: Euclidean distance of Cell Painting phenotypic profile (signed KS, 77 features) to DMSO centroid (dimensionless distance); 5 or 10 uM (library dependent); higher = stronger phenotypic change vs DMSO (phenoactivity)
- assay setup: 48 h
Just the number, please, no unit after it.

Record request: Euclidean distance value, item CC1OC2(CS1)CN1CCC2CC1 (centres undefined) 0.896

Thanks! And CC[C@@H]1C(=O)N(C)c2cnc(Nc3ccc(C(=O)NC4CCN(C)CC4)cc3OC)nc2N1C1CCCC1 ? 3.25

Thanks! And CCCCC1=NC2(CCCC2)C(=O)N1Cc1ccc(-c2ccccc2S(=O)(=O)Nc2noc(C)c2C)c(COCC)c1 ? 1.01

Thanks! And CCN(CC)Cc1cc(Nc2ccnc3cc(Cl)ccc23)ccc1O [Amodiaquine] ? 1.37

Thanks! And Nc1nc(OCc2cc(Br)cs2)c2[nH]cnc2n1 ? 1.15

---

- Test system: A549
- measurement description: Euclidean distance of Cell Painting phenotypic profile (signed KS, 77 features) to DMSO centroid (dimensionless distance); 5 or 10 uM (library dependent); higher = stronger phenotypic change vs DMSO (phenoactivity)
- assay setup: 48 h
Counter-ions that a name gives are not always drawn.
Everything with Euclidean distance lower than 1 is false; everything else, including exactly 1, is true.

Does the molecule CCN(CC)Cc1cc(Nc2ccnc3cc(Cl)ccc23)ccc1O [Amodiaquine hydrochloride] have recorded Euclidean distance that is 1 or more? true

Thanks! And CCC/N=C1\S/C(=C\c2ccc(OC[C@H](O)CO)c(Cl)c2)C(=O)N1c1ccccc1C ? true

---
Does the molecule COc1ccc(CNc2nc(N3CCC[C@H]3CO)ncc2C(=O)NCc2ncccn2)cc1Cl have recorded Euclidean distance that is 1 or more? false

---

- Tested on: 786-O
- measurement description: Euclidean distance of Cell Painting phenotypic profile (signed KS, 77 features) to DMSO centroid (dimensionless distance); 5 or 10 uM (library dependent); higher = stronger phenotypic change vs DMSO (phenoactivity)
- assay setup: 48 h
Where a name gives a salt, the structure may show the parent alone.
Everything with Euclidean distance lower than 0.9 is no (0); everything else, including exactly 0.9, is yes (1).

A selection of reference data follows.
Does the molecule N[C@@H](Cc1c[nH]c2ccc(O)cc12)C(=O)O [5-hydroxytryptophan (5-HTP)] have recorded Euclidean distance that is 0.9 or more? yes (1)

Thanks! And Cc1cccc(C)c1OCC(C)N (stereo not given) [Mexiletine HCl] ? yes (1)

---
Does the molecule COC(=O)CCc1ccc(OCC(O)CNC(C)C)cc1 (stereo not given) [Esmolol HCl] have recorded Euclidean distance that is 0.9 or more? yes (1)

Thanks! And NC(=O)NCCC[C@H](N)C(=O)O ? yes (1)

Thanks! And CCCC(=O)[O-].[Na+] [Sodium butyrate] ? yes (1)

These entries and their values trace back to the supplement of paper PMC10127200.
